Give measured max activity for each item. Keep answers brief.
- test.description: inhibitors of Toxoplasma growth in IFN-γ-primed HeLa – cell-based, ME49Luc, luciferase, 72 h, dose response (AID 1259418)
- reported.conditions: T. gondii ME49Luc in IFN-y HeLa, active compounds read low, -100% = high-dose IFN-γ control wells; at 19.5 µM unless noted
Hit rate of the full screen: of about 3,400 compounds, about 840 (25%) were called active. Inconclusive results (about 11%) are left out. Only a sample is shown. Entries with a potency or affinity are not part of this list.

Challenge: Quick one: max activity of `Cc1ccc2c(c1)cc(S(=O)(=O)c1ccccc1)c(=O)n2CC(=O)NCCC(C)C` ?
Response given: -4.39% [at 5 µM] (inactive)

Challenge: Quick one: max activity of `COc1cccc(CC(=O)Nc2ccc(-c3nc(-c4ccc(C)cc4)co3)cc2)c1` ?
Response given: 20.4% (inactive)

Challenge: Quick one: max activity of `N#C[C@@H]1[C@@H](c2ccc(-c3cccnc3)cc2)[C@H](CO)N1C(=O)Nc1ccc(F)cc1` ?
Response given: 48.3% [at 10 µM] (inactive)

Challenge: Quick one: max activity of `CCc1ccc(CNc2nc(-c3ccc(Cl)cc3)nc3ccccc23)cc1` ?
Response given: 24.5% (inactive)

Challenge: Quick one: max activity of `COc1ccc(-c2nc(NCc3ccc4c(c3)OCO4)c3ccccc3n2)cc1` ?
Response given: -12% [at 1.35 µM] (inactive)

Challenge: Quick one: max activity of `CCOc1ccc(S(=O)(=O)N2CCc3nc(-c4ccc(OC)cc4)sc3C2)cc1` ?
Response given: -25.8% [at 0.16 µM] (inactive)

Challenge: Quick one: max activity of `CCOc1cccc(-c2noc(-c3nnn(Cc4nc(-c5ccccc5)oc4C)c3C)n2)c1` ?
Response given: 8.01% (inactive)

Challenge: Quick one: max activity of `Cc1cccc(-c2nc(CSc3nc4c(c(=O)[nH]3)CN(Cc3ccc(Cl)cc3)CC4)c(C)o2)c1` ?
Response given: 23.2% [at 0.16 µM] (inactive)

Challenge: Quick one: max activity of `COc1ccc(-c2nc(NCCc3ccc(Cl)cc3)c3ccccc3n2)cc1` ?
Response given: 25.9% [at 0.16 µM] (inactive)

Challenge: Quick one: max activity of `Fc1ccc(CNc2nc(-c3ccc(Cl)cc3)nc3ccccc23)cc1` ?
Response given: 7.26% (inactive)

Challenge: Quick one: max activity of `COc1ccc(CC(=O)N2CCC[C@@H]2C(=O)NCCc2csc(-c3ccccc3)n2)cc1Cl` ?
Response given: 18.7% [at 5 µM] (inactive)

Challenge: Quick one: max activity of `COC(=O)c1cccc(NC(=O)Nc2ccc(-c3nc(-c4cc(C)ccc4C)co3)cc2)c1` ?
Response given: 11.4% [at 5 µM] (inactive)

Challenge: Quick one: max activity of `COc1ccc(OCC(=O)N2CCC(C(=O)NCCc3csc(-c4ccccc4)n3)CC2)cc1` ?
Response given: 12.9% (inactive)

Challenge: Quick one: max activity of `Cc1ccc2c(c1C)-n1cccc1C1(CCN(C(=O)Cc3ccccc3)CC1)N2` ?
Response given: 4.08% [at 0.68 µM] (inactive)

Challenge: Quick one: max activity of `COc1ccc(-c2nc(NCCc3ccc(C)cc3)c3ccccc3n2)cc1` ?
Response given: 14.1% [at 0.16 µM] (inactive)

Challenge: Quick one: max activity of `COc1ccc(-c2nc(NCc3ccc(C)o3)c3ccccc3n2)cc1` ?
Response given: -32.7% [at 1.35 µM] (inactive)

Challenge: Quick one: max activity of `Cc1ccc2c(c1C)-n1cccc1C1(CCN(C(=O)c3cccc(Cl)c3)CC1)N2` ?
Response given: 6.45% (inactive)

Challenge: Quick one: max activity of `Cc1ccc(C)c(-c2coc(-c3ccc(NC(=O)c4sccc4C)cc3)n2)c1` ?
Response given: 16.8% [at 10 µM] (inactive)

Challenge: Quick one: max activity of `O=C(O)c1ccc(NC(=NCCc2ccccc2)N2CCN(c3ncnc4ccccc34)CC2)cc1` ?
Response given: 6.72% (inactive)

Challenge: Quick one: max activity of `Cc1ccnc(Nc2nc(C)c(C(=O)N3CCC(C(N)=O)(N4CCCCC4)CC3)s2)c1` ?
Response given: -7.52% [at 0.35 µM] (inactive)
